Entries annotated with measured recombinant barcode read abundance (log10)
- METHOD_DESCRIPTION: recombinant barcode read abundance after kanamycin selection (control-corrected) (log10(CPM+1)); higher = more efficient recombination; sequences stand for … in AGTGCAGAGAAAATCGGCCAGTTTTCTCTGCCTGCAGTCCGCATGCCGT…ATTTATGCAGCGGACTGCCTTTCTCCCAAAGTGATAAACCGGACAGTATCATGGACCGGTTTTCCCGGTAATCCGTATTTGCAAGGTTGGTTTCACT; site = the 11-nt target
Hey, just send me the number, nothing else.

Solved cases below.
In [3]: df
Out[3]:
                            sequence_record  quantitative_result
0  AGGCCTCAGTGGGTTCTAACCTGTTGCCTCT [AGGCCTCCTAG_LTGcore_AG_RTGcore_AG] (site AGGCCTCCTAG) (LTG core: AG, RTG core: AG)                0.182
1  TAAGAATGGTGGGTTCTAACCTGTTGCCTAG [TAAGAATCTAG_LTGcore_GG_RTGcore_CT] (site TAAGAATCTAG) (LTG core: GG, RTG core: CT)               0.0162
2  CATATTACTTGGGTTCTAACCTGTTGCCTGC [CATATTACTAG_LTGcore_CT_RTGcore_GC] (site CATATTACTAG) (LTG core: CT, RTG core: GC)               0.0956
3  AGGCCTCCTTGGGTTCTAACCTGTTGCCTGC [AGGCCTCCTAG_LTGcore_CT_RTGcore_GC] (site AGGCCTCCTAG) (LTG core: CT, RTG core: GC)                0.112

The record that follows has no recombinant barcode read abundance (log10) shown yet.
For the sequence TAGAGGGCTTGGGTTCTAACCTGTTGCGGGC [TAGAGGGCTCC_LTGcore_CT_RTGcore_GC] (site TAGAGGGCTCC) (LTG core: CT, RTG core: GC) , what recombinant barcode read abundance (log10) is on record?
1.36

* * *

- METHOD_DESCRIPTION: recombinant UMI read abundance after kanamycin selection (control-corrected) (log10(CPM+1)); higher = more efficient recombination; extreme values may be limits of the assay; sequences stand for … in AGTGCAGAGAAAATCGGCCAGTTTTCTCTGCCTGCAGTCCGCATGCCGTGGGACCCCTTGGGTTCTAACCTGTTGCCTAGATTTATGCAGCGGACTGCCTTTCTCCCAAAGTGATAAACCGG…AGGTTGGTTTCACT; site = the 11-nt donor
MEASURED_ENDPOINT: recombinant UMI read abundance (log10)
Format: numeric value only, no unit, no commentary.

Examples with answers:
>>> print(df.to_string())
                            sequence_record  quantitative_result
0  TAGCTAGCATGGACCGGTTTTCCCGGTAATCCGTATTTGGA (site TAGCTAGCTTT)                0.866
1  GAATGAGCATGGACCGGTTTTCCCGGTAATCCGTATTTGGG (site GAATGAGCTCC)                0.261
2  AGCATAGCATGGACCGGTTTTCCCGGTAATCCGTATTTGTT (site AGCCTAGCTAA)               0.0149

// recombinant UMI read abundance (log10) lookup, key: CAATCAGCATGGACCGGTTTTCCCGGTAATCCGTATTTGCT (site CAACCAGCTAG)
0.798

And then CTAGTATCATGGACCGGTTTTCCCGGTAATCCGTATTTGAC (site CTAGTATCTGA) , what is it?
1.14
